Data origin, for the record: patent US20200339690A1

Catalogue of binding (fold over iso) readings, one per entry.
target: T1, human LILRA5 (human, UniProt A6NI73 42-299); test: flow cytometry, LILRA5 CHOs
T1 construct: Over-expressed on CHO-s cells; also called hLILRA5
T1 sequence (A6NI73 42-299 limits assumed): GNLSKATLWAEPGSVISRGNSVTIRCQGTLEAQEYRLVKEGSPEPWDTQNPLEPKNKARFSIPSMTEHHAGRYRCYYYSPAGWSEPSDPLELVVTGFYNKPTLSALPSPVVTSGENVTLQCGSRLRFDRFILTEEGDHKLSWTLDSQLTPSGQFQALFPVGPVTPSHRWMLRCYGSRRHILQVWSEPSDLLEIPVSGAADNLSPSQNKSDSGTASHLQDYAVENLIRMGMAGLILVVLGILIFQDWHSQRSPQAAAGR
attribute measured: binding (fold over iso)

binder | test result
J-11 (antibody, human IgG4 S228P, kappa, V domains shown, Human IgG4 chimera of murine origin; also called J-11.h) VH: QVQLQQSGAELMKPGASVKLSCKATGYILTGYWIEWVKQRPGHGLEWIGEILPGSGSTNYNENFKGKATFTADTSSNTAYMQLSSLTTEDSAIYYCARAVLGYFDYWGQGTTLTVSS VL: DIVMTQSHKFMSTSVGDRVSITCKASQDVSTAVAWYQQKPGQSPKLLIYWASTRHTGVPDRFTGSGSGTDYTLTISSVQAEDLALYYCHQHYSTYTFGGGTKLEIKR | 1.34
J-04 (antibody, human IgG4 S228P, kappa, V domains shown, Human IgG4 chimera of murine origin) VH: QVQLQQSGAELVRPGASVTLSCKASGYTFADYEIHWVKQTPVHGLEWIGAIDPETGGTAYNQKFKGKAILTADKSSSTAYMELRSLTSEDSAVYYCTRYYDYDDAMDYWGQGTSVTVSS VL: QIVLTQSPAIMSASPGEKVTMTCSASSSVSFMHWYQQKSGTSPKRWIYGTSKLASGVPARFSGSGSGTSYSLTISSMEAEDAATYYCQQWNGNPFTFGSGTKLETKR | 0.74
J-19 (antibody, human IgG4 S228P, kappa, V domains shown, Human IgG4 chimera from a rat immunization; also called J-19.h) VH: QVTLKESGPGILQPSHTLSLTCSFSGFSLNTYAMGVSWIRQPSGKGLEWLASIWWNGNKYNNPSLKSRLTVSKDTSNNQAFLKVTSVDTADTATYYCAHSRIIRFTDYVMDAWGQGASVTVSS VL: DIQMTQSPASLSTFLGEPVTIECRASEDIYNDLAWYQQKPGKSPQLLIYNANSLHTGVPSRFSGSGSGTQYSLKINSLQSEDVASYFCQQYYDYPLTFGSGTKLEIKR | -0.62
J-03 (antibody, human IgG4 S228P, kappa, V domains shown, Human IgG4 chimera of murine origin) VH: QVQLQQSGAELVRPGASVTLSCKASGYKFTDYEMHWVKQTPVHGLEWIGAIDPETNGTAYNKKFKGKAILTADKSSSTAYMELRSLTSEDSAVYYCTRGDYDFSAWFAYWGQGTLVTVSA VL: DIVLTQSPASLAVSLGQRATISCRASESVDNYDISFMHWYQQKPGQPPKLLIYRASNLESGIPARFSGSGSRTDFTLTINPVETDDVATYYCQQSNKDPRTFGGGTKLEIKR | 0.96
